All figures here come from ChEMBL document CHEMBL3885861.

Organism: Rattus norvegicus
Experiment: Open TG-GATES - Regimen: Single
Format: toxicity, organism-based, Sprague-Dawley
Set-up: regimen Single, gender Male, age 6 weeks
Conditions: in vivo, po, 0 mg/kg, 24 h, tissue Plasma, route gavage, dose level Control
MEASURE: TBIL (mg/dL)
Report the figure in mg/dL without appending any unit label.

Below, 2 compounds whose answers are already recorded.
- COMPOUND: "CN1C(=O)CCS(=O)(=O)C1c1ccc(Cl)cc1 (stereo not drawn)"
  MEASURE: "TBIL"
  UNITS: "mg/dL"
  TEST VALUE: 0.028
- COMPOUND: "Brc1ccccc1"
  MEASURE: "TBIL"
  UNITS: "mg/dL"
  TEST VALUE: 0.04

Here is the next item to consider.
Qu. Read the entry CS(=O)(=O)O.Cc1ccc(NC(=O)c2ccc(CN3CCN(C)CC3)cc2)cc1Nc1nccc(-c2cccnc2)n1 [IMATINIB MESYLATE] and write its reported TBIL.
Ans. 0.004

====

Species: Rattus norvegicus
Assay: Open TG-GATES - Regimen: Single
Assay type: toxicity, organism-based, Sprague-Dawley
Set-up: regimen Single, gender Male, age 6 weeks
Conditions: in vivo, po, 0 mg/kg, 24 h, tissue Liver, route gavage, dose level Control
MEASURE: LIVER (g)
Report the figure in g without appending any unit label.

- COMPOUND: "CCOc1ccc(NC(C)=O)cc1 [PHENACETIN]"
  LIVER / g: 10.7

Qu. Read the entry Nc1c2c(nc3ccccc13)CCCC2 [TACRINE] and write its reported LIVER.
Ans. 10

Qu. Read the entry COC(=O)C1=C(C)NC(C)=C(C(=O)OC)C1c1ccccc1[N+](=O)[O-] [NIFEDIPINE] and write its reported LIVER.
Ans. 9.6

Qu. Read the entry CN(C)CCC(c1ccc(Cl)cc1)c1ccccn1 (configuration not stated) [CHLORPHENIRAMINE] and write its reported LIVER.
Ans. 10

Qu. Read the entry CNC(=C[N+](=O)[O-])NCCSCc1ccc(CN(C)C)o1 [RANITIDINE] and write its reported LIVER.
Ans. 10.9

Qu. Read the entry CN1C(=O)CCS(=O)(=O)C1c1ccc(Cl)cc1 (configuration not stated) [CHLORMEZANONE] and write its reported LIVER.
Ans. 10.6

Qu. Read the entry CC(C)NNC(=O)c1ccncc1 [IPRONIAZID] and write its reported LIVER.
Ans. 10.3

Qu. Read the entry NC1=NC(=O)C(c2ccccc2)O1 (configuration not stated) [PEMOLINE] and write its reported LIVER.
Ans. 9.9

Qu. Read the entry CCCc1cc(=O)[nH]c(=S)[nH]1 [PROPYLTHIOURACIL] and write its reported LIVER.
Ans. 9.1

Qu. Read the entry Cc1nnc2n1-c1ccc(Cl)cc1C(c1ccccc1Cl)=NC2 [TRIAZOLAM] and write its reported LIVER.
Ans. 9.5

Qu. Read the entry Brc1ccccc1 [BROMOBENZENE] and write its reported LIVER.
Ans. 8.7

Qu. Read the entry CN/C(=N/CCSCc1nc[nH]c1C)NC#N [CIMETIDINE] and write its reported LIVER.
Ans. 11

====

Species on record: Rattus norvegicus
Experiment: Open TG-GATES - Regimen: Single
Format: toxicity, organism-based, Sprague-Dawley
Set-up: regimen Single, gender Male, age 6 weeks
Settings: in vivo, po, 0 mg/kg, 9 h, tissue Plasma, route gavage, dose level Control
In this section we review reported PL values for a set of compounds.
Report the figure in mg/dL without appending any unit label.

Below, 6 compounds whose answers are already recorded.
- COMPOUND: "CNC(=C[N+](=O)[O-])NCCSCc1ccc(CN(C)C)o1 [RANITIDINE]"
  MEASURE: "PL"
  TEST VALUE: 134
- COMPOUND: "Brc1ccccc1 [BROMOBENZENE]"
  MEASURE: "PL"
  TEST VALUE: 146.8
- COMPOUND: "CN(C)CCC(c1ccc(Cl)cc1)c1ccccn1 (stereo not drawn) [CHLORPHENIRAMINE]"
  MEASURE: "PL"
  TEST VALUE: 131.6
- COMPOUND: "CCOc1ccc(NC(C)=O)cc1 [PHENACETIN]"
  MEASURE: "PL"
  TEST VALUE: 145.6
- COMPOUND: "CN1C(=O)CCS(=O)(=O)C1c1ccc(Cl)cc1 (stereo not drawn) [CHLORMEZANONE]"
  MEASURE: "PL"
  TEST VALUE: 132
- COMPOUND: "CC(C)NNC(=O)c1ccncc1 [IPRONIAZID]"
  MEASURE: "PL"
  TEST VALUE: 135

Qu. Read the entry Cc1nnc2n1-c1ccc(Cl)cc1C(c1ccccc1Cl)=NC2 [TRIAZOLAM] and write its reported PL.
Ans. 132.4

Qu. Read the entry Nc1c2c(nc3ccccc13)CCCC2 [TACRINE] and write its reported PL.
Ans. 139

Qu. Read the entry CCCc1cc(=O)[nH]c(=S)[nH]1 [PROPYLTHIOURACIL] and write its reported PL.
Ans. 132.2

Qu. Read the entry CN/C(=N/CCSCc1nc[nH]c1C)NC#N [CIMETIDINE] and write its reported PL.
Ans. 139

Qu. Read the entry NC1=NC(=O)C(c2ccccc2)O1 (stereo not drawn) [PEMOLINE] and write its reported PL.
Ans. 121.6

Qu. Read the entry COC(=O)C1=C(C)NC(C)=C(C(=O)OC)C1c1ccccc1[N+](=O)[O-] [NIFEDIPINE] and write its reported PL.
Ans. 130.6

Qu. Read the entry CS(=O)(=O)O.Cc1ccc(NC(=O)c2ccc(CN3CCN(C)CC3)cc2)cc1Nc1nccc(-c2cccnc2)n1 [IMATINIB MESYLATE] and write its reported PL.
Ans. 140.2

====

Organism: Rattus norvegicus
Experiment: Open TG-GATES - Regimen: Daily Repeat
Type: toxicity, organism-based, Sprague-Dawley
Design: regimen Daily Repeat, gender Male, age 6 weeks
Conditions: in vivo, po, 1000 mg/kg, […], tissue Plasma, route gavage, dose level High, time 28 day
MEASURE: IP (mg/dL)
Report the figure in mg/dL without appending any unit label.

- MOLECULE: "COC(=O)C1=C(C)NC(C)=C(C(=O)OC)C1c1ccccc1[N+](=O)[O-] [NIFEDIPINE]"
  TEST VALUE: 5.8
- MOLECULE: "Cc1nnc2n1-c1ccc(Cl)cc1C(c1ccccc1Cl)=NC2 [TRIAZOLAM]"
  TEST VALUE: 6
- MOLECULE: "CN/C(=N/CCSCc1nc[nH]c1C)NC#N [CIMETIDINE]"
  TEST VALUE: 8.1
- MOLECULE: "O=C(OC[C@H]1O[C@@H](OC(=O)c2cc(O)c(O)c(OC(=O)c3cc(O)c(O)c(O)c3)c2)[C@H](OC(=O)c2cc(O)c(O)c(OC(=O)c3cc(O)c(O)c(O)c3)c2)[C@@H](OC(=O)c2cc(O)c(O)c(OC(=O)c3cc(O)c(O)c(O)c3)c2)[C@@H]1OC(=O)c1cc(O)c(O)c(OC(=O)c2cc(O)c(O)c(O)c2)c1)c1cc(O)c(O)c(OC(=O)c2cc(O)c(O)c(O)c2)c1 [TANNIC ACID]"
  TEST VALUE: 7.8

Here is the next item to consider.
Qu. Read the entry CCOc1ccc(NC(C)=O)cc1 [PHENACETIN] and write its reported IP.
Ans. 6.6

====

In this section we review reported WBC values for a set of compounds.
Organism: Rattus norvegicus
Experiment: Open TG-GATES - Regimen: Single
Assay type: toxicity, organism-based, Sprague-Dawley
Design: regimen Single, gender Male, age 6 weeks
Settings: in vivo, po, 0 mg/kg, 9 h, tissue Blood, route gavage, dose level Control
Report the figure in x10_2/uL without appending any unit label.

- COMPOUND: "Cc1nnc2n1-c1ccc(Cl)cc1C(c1ccccc1Cl)=NC2"
  UNITS: "x10_2/uL"
  TEST VALUE: 96.7
- COMPOUND: "CS(=O)(=O)O.Cc1ccc(NC(=O)c2ccc(CN3CCN(C)CC3)cc2)cc1Nc1nccc(-c2cccnc2)n1 [IMATINIB MESYLATE]"
  UNITS: "x10_2/uL"
  TEST VALUE: 86
- COMPOUND: "COC(=O)C1=C(C)NC(C)=C(C(=O)OC)C1c1ccccc1[N+](=O)[O-]"
  UNITS: "x10_2/uL"
  TEST VALUE: 65.5
- COMPOUND: "CN(C)CCC(c1ccc(Cl)cc1)c1ccccn1 (stereo unspecified)"
  UNITS: "x10_2/uL"
  TEST VALUE: 66.4
- COMPOUND: "O=C(OC[C@H]1O[C@@H](OC(=O)c2cc(O)c(O)c(OC(=O)c3cc(O)c(O)c(O)c3)c2)[C@H](OC(=O)c2cc(O)c(O)c(OC(=O)c3cc(O)c(O)c(O)c3)c2)[C@@H](OC(=O)c2cc(O)c(O)c(OC(=O)c3cc(O)c(O)c(O)c3)c2)[C@@H]1OC(=O)c1cc(O)c(O)c(OC(=O)c2cc(O)c(O)c(O)c2)c1)c1cc(O)c(O)c(OC(=O)c2cc(O)c(O)c(O)c2)c1"
  UNITS: "x10_2/uL"
  TEST VALUE: 92.1

Qu. Read the entry Nc1c2c(nc3ccccc13)CCCC2 and write its reported WBC.
Ans. 84.5
